These compounds were tested on Vasopressin V1a receptor (Homo sapiens, UniProt P37288); AC50 is the recorded read-out. Further: assay procedure not described here.
Sequence (P37288 whole entry): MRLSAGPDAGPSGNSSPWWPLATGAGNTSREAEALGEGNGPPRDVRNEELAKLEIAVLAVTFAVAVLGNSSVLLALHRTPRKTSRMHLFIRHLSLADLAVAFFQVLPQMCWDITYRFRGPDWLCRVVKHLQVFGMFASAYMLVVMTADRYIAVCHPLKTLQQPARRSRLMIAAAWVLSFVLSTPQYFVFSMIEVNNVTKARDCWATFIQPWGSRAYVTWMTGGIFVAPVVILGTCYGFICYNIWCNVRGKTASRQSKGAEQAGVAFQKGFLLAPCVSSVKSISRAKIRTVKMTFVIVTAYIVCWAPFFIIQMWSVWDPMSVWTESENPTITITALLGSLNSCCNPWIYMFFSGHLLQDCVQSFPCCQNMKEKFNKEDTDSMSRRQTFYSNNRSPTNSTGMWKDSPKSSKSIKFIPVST
parameterMeasured: AC50

compound: CC/C=C\C/C=C\C/C=C\C/C=C\C/C=C\CCCC(=O)OCC [ICOSAPENT ETHYL]
reading: > 30 µM

compound: Cc1ccc(C)c(OCCCC(C)(C)C(=O)O)c1 [GEMFIBROZIL]
reading: > 10 µM

compound: Cc1cccc(C)c1NC(=O)CC12CCCN1CCC2 [PILSICAINIDE]
reading: > 30 µM

compound: CC(O)(CS(=O)(=O)c1ccc(F)cc1)C(=O)Nc1ccc(C#N)c(C(F)(F)F)c1 (centres undefined) [BICALUTAMIDE]
reading: > 30 µM

compound: COc1ccccc1OC1(C)OC(=O)c2ccccc2O1 (centres undefined) [GUAIMESAL]
reading: > 30 µM

compound: CC=CC1=C(C(=O)O)N2C(=O)[C@@H](NC(=O)[C@H](N)c3ccc(O)cc3)[C@H]2SC1 [CEFPROZIL]
reading: > 30 µM

compound: O=C1Nc2ccc(Cl)cc2C(c2ccccc2Cl)=NC1O (centres undefined) [LORAZEPAM]
reading: > 10 µM

compound: CCCN1CC(NS(=O)(=O)N(CC)CC)CC2Cc3c(O)cccc3CC21 (centres undefined) [QUINAGOLIDE]
reading: > 30 µM

compound: COc1cc(C(C)=O)ccc1OCCCN1CCC(c2noc3cc(F)ccc23)CC1 [ILOPERIDONE]
reading: > 30 µM

compound: OC[C@H]1O[C@@H](Oc2cc(O)cc(/C=C/c3ccc(O)cc3)c2)[C@H](O)[C@@H](O)[C@@H]1O [PICEID]
reading: > 30 µM

compound: CCN1CCCC1CNC(=O)c1cc(S(=O)(=O)CC)ccc1OC (centres undefined) [SULTOPRIDE]
reading: > 30 µM

compound: Oc1cc(O)c(Cl)cn1
reading: > 30 µM

compound: Oc1ccc(CCNCCCCCCNCCc2ccccc2)cc1O [DOPEXAMINE]
reading: > 30 µM

compound: S=P(N1CC1)(N1CC1)N1CC1 [THIOTEPA]
reading: > 30 µM

compound: CC(C)(O/N=C(\C(=O)N[C@@H]1C(=O)N2C(C(=O)[O-])=C(C[n+]3ccccc3)CS[C@H]12)c1csc(N)n1)C(=O)O [CEFTAZIDIME]
reading: > 300 µM

compound: CCC(NC(C)C)C(O)c1ccc(O)c2[nH]c(=O)ccc12 (centres undefined) [PROCATEROL]
reading: > 30 µM

compound: Fc1ccc([C@@H]2CCNC[C@H]2COc2ccc3c(c2)OCO3)cc1 [PAROXETINE]
reading: > 10 µM

compound: Clc1ccc(Cn2c(CN3CCCC3)nc3ccccc32)cc1 [CLEMIZOLE]
reading: > 30 µM

compound: Cc1onc(-c2c(F)cccc2Cl)c1C(=O)N[C@@H]1C(=O)N2[C@@H]1SC(C)(C)[C@@H]2C(=O)O [FLOXACILLIN]
reading: > 30 µM

###

Property: AC50; scope: individual compounds
Target: Amine oxidase [flavin-containing] A (Homo sapiens, UniProt P21397); further: assay procedure not described here
Sequence (P21397 whole entry): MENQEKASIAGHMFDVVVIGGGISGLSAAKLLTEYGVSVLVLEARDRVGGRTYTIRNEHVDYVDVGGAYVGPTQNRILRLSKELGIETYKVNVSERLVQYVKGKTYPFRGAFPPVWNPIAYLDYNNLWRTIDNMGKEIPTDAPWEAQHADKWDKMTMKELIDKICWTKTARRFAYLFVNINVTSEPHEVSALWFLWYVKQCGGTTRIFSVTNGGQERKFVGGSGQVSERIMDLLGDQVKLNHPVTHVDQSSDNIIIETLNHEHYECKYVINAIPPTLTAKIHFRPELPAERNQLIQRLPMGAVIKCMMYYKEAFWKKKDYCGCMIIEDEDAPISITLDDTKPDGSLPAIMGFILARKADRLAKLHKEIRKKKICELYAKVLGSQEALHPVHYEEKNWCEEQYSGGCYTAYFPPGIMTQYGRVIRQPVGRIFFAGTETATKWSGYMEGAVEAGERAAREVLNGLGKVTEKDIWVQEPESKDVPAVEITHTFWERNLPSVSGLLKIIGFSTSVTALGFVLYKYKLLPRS
Assay type: functional

compound: COC(=O)C1=C(C)NC(C)=C(C(=O)OCCN2CCN(C(c3ccccc3)c3ccccc3)CC2)C1c1cccc([N+](=O)[O-])c1 (centres undefined)
AC50: > 30 µM
--
compound: C=CC[N+]1([C@H]2C[C@H]3[C@@H]4CC[C@H]5C[C@H](O)[C@@H](N6CCOCC6)C[C@]5(C)[C@H]4CC[C@]3(C)[C@H]2OC(C)=O)CCCC1
AC50: > 30 µM
--
compound: Cc1ccc(C)c(OCCCC(C)(C)C(=O)O)c1
AC50: > 10 µM
--
compound: CC(C(=O)O)c1ccc2oc(-c3ccc(Cl)cc3)nc2c1 (centres undefined)
AC50: 26 µM
--
compound: O=c1[nH]c2ccccc2n1CCCN1CCN(C(c2ccccc2)c2ccccc2)CC1 [OXATOMIDE]
AC50: > 30 µM
--
compound: CN1CCN=C(c2ccccc2)c2cc(Cl)ccc21
AC50: > 30 µM
--
compound: NC(=O)NC(=O)Cc1ccccc1 [PHENACEMIDE]
AC50: > 10 µM
--
compound: CC(c1cc2ccccc2s1)N(O)C(N)=O (centres undefined)
AC50: > 10 µM
--
compound: CC(C)N(CCCCOCC(=O)O)c1cnc(-c2ccccc2)c(-c2ccccc2)n1
AC50: > 30 µM

###

These compounds were tested on Glutamate receptor ionotropic, NMDA 1 (Rattus norvegicus); AC50 is the recorded read-out. Further: assay procedure not described here.

compound: CCOC(=O)c1ccc(C#Cc2ccc3c(c2)C(C)(C)CCS3)nc1
AC50: > 10 µM

compound: COc1cc(C(=O)NC2CCCNC2)cc(OC)c1OC (stereo not given) [TROXIPIDE]
AC50: > 30 µM

compound: COc1cc2[nH]c(C)c(CCN3CCN(c4ccccc4)CC3)c2cc1OC
AC50: > 30 µM

compound: CCC1(CCC(C)C)C(=O)NC(=O)NC1=O
AC50: > 10 µM

compound: C[N+]1(C)CCC(=C(c2ccccc2)c2ccccc2)CC1
AC50: > 10 µM

###

These compounds were tested on Gamma-aminobutyric acid receptor subunit alpha-1 (Rattus norvegicus, UniProt P62813); AC50 is the recorded read-out. Further: assay procedure not described here.
Sequence (P62813 whole entry): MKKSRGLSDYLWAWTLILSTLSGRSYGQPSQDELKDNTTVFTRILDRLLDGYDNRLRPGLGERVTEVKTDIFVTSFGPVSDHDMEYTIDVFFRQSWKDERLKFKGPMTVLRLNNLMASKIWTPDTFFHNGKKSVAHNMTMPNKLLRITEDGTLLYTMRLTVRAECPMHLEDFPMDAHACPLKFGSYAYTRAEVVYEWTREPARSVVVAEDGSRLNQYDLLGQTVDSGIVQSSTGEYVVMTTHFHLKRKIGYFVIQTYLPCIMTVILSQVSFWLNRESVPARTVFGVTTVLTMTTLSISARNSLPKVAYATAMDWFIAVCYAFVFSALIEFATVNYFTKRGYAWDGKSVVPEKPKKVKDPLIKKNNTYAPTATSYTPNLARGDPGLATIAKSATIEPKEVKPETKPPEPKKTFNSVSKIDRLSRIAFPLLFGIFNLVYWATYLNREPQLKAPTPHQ

compound: OC[C@H]1O[C@@H](Oc2cc(O)cc(/C=C/c3ccc(O)cc3)c2)[C@H](O)[C@@H](O)[C@@H]1O
AC50: > 30 µM
--
compound: COc1ccc(CN2CCN(C(c3ccc(F)cc3)c3ccc(F)cc3)CC2)c(OC)c1OC
AC50: > 30 µM
--
compound: CC(C)N(CCCCOCC(=O)O)c1cnc(-c2ccccc2)c(-c2ccccc2)n1
AC50: > 30 µM
--
compound: COc1cc(N)c(Cl)cc1C(=O)NC1CCN(CCCOc2ccc(F)cc2)CC1OC (centres undefined) [CISAPRIDE]
AC50: > 10 µM
--
compound: C=C1c2cccc(O)c2C(=O)C2=C(O)[C@]3(O)C(=O)C(C(N)=O)=C(O)[C@@H](N(C)C)[C@@H]3[C@@H](O)[C@H]12
AC50: > 10 µM
--
compound: Oc1cc(O)c(Cl)cn1
AC50: > 30 µM
--
compound: CN(Cc1cnc2nc(N)nc(N)c2n1)c1ccc(C(=O)N[C@@H](CCC(=O)O)C(=O)O)cc1 [METHOTREXATE]
AC50: > 10 µM
--
compound: CCOc1nc2cccc(C(=O)O)c2n1Cc1ccc(-c2ccccc2-c2nnn[nH]2)cc1
AC50: > 10 µM
--
compound: CN(CCOc1ccc(CC2SC(=O)NC2=O)cc1)c1ccccn1 (centres undefined)
AC50: > 30 µM

###

These molecules were tested on Type-1 angiotensin II receptor (Homo sapiens, UniProt P30556); AC50 is the recorded read-out. Further: assay procedure not described here.
Sequence (P30556 whole entry): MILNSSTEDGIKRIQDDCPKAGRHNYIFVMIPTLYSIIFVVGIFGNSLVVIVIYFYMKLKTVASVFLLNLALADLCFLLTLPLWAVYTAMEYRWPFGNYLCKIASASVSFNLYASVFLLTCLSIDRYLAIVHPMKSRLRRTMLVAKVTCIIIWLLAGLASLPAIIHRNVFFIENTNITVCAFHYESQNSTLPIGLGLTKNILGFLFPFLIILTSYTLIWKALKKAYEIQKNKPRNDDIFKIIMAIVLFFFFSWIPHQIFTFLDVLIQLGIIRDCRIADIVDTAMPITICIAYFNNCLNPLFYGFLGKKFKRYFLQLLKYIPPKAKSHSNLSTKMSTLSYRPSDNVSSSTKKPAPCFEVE

molecule: CCN1CCCC1CNC(=O)c1cc(S(=O)(=O)CC)ccc1OC (stereo not given) [SULTOPRIDE]
tgt: Type-1 angiotensin II receptor (Homo sapiens, UniProt P30556)
AC50: > 30 µM
//
molecule: CC(c1cc2ccccc2s1)N(O)C(N)=O (stereo not given)
tgt: Type-1 angiotensin II receptor (Homo sapiens, UniProt P30556)
AC50: > 10 µM
//
molecule: O=C(O)c1ccc(NC(=O)[C@H](Cc2ccc(O)cc2)NC(=O)c2ccccc2)cc1 [BENTIROMIDE]
tgt: Type-1 angiotensin II receptor (Homo sapiens, UniProt P30556)
AC50: > 10 µM
//
molecule: CNC(=C[N+](=O)[O-])NCCSCc1csc(CN(C)C)n1
tgt: Type-1 angiotensin II receptor (Homo sapiens, UniProt P30556)
AC50: > 10 µM
//
molecule: COc1cc2[nH]c(C)c(CCN3CCN(c4ccccc4)CC3)c2cc1OC
tgt: Type-1 angiotensin II receptor (Homo sapiens, UniProt P30556)
AC50: > 30 µM

###

Biological target: 5-hydroxytryptamine receptor 1A (Homo sapiens, UniProt P08908); further: assay procedure not described here
Sequence (P08908 whole entry): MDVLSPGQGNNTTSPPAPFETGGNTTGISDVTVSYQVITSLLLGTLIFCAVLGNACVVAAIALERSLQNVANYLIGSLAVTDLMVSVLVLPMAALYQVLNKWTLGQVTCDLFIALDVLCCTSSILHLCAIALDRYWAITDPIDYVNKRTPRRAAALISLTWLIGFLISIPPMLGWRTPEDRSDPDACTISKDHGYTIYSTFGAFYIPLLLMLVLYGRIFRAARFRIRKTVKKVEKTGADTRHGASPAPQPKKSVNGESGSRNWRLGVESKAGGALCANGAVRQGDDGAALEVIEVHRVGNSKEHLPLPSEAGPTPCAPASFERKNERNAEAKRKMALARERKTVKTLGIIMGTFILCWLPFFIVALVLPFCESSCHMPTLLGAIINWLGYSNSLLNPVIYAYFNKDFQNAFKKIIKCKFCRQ
Assay type: functional, cell-based

compound: O=C(O)c1cccnc1Nc1cccc(C(F)(F)F)c1 [NIFLUMIC ACID]
AC50: > 10 µM
//
compound: O=C(O)Cc1ccccc1Oc1ccc(Cl)cc1Cl [FENCLOFENAC]
AC50: > 10 µM
//
compound: O=C1c2ccccc2C(=O)C1c1ccccc1 [PHENINDIONE]
AC50: > 30 µM
//
compound: CN(C)Cc1nnc2n1-c1ccc(Cl)cc1C(c1ccccc1)=NC2 [ADINAZOLAM]
AC50: > 10 µM
//
compound: CCC[C@@H]1C[C@@H](C(=O)N[C@@H]([C@H]2O[C@H](SC)[C@H](O)[C@@H](O)[C@H]2O)[C@@H](C)O)N(C)C1 [LINCOMYCIN]
AC50: > 10 µM
//
compound: CCCNC(=O)NS(=O)(=O)c1ccc(Cl)cc1 [CHLORPROPAMIDE]
AC50: > 10 µM
//
compound: CCCN(CCC)S(=O)(=O)c1ccc(C(=O)O)cc1 [PROBENECID]
AC50: > 10 µM
//
compound: Cc1nc(Nc2ncc(C(=O)Nc3c(C)cccc3Cl)s2)cc(N2CCN(CCO)CC2)n1 [DASATINIB]
AC50: > 30 µM
//
compound: CC=CC1=C(C(=O)O)N2C(=O)[C@@H](NC(=O)[C@H](N)c3ccc(O)cc3)[C@H]2SC1 [CEFPROZIL]
AC50: > 30 µM

Origin of the recorded values: ChEMBL document CHEMBL5291721
